target_or_test_system: Human (6-His) Sortilin (Homo sapiens, UniProt Q99523)
Sequence (Q99523 78-831): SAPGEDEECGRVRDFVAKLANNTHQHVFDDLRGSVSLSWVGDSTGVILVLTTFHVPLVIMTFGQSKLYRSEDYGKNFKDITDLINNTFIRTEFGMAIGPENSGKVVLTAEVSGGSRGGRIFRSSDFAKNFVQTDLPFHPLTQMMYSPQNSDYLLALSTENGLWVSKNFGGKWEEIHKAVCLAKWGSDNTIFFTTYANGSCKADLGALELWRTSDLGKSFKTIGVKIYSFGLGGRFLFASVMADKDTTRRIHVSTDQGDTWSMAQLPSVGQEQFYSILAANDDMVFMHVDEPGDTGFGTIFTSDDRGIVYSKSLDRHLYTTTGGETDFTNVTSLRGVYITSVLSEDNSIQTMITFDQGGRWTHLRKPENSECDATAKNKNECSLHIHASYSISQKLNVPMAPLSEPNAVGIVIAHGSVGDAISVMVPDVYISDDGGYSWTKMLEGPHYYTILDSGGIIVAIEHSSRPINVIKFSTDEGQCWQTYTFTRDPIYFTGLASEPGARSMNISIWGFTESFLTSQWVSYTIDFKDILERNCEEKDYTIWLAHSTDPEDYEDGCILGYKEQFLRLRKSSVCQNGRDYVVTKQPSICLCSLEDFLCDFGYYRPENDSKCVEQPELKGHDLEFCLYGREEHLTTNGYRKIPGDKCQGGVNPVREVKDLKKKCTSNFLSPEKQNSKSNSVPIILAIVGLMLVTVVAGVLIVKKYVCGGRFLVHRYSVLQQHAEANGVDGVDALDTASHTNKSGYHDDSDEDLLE
assay_overview: biochemical
measurement_kind: Kd (µM)
Answer in µM, number only, no unit symbol.

Worked examples follow.
molecule	measured_value
CC(C)CC(Nc1cccnc1)c1nnn[nH]1 (racemic)	47.3
Cc1nc(NC(CCC(C)(C)C)c2nnn[nH]2)c2ccccc2n1 (racemic)	0.0857
CC(C)CC(Nc1ccccc1)c1nnn[nH]1 (racemic)	111

Query molecule follows.
State the measured Kd (Human (6-His) Sortilin (Homo sapiens, UniProt Q99523)) of CC(C)(C)CCC(Nc1ccccc1)c1nnn[nH]1 (racemic)
2.84
